Measured growth inhibition values are reported for all entries that follow.
Experiment: NCI Yeast Anticancer Drug Screen. Data for the CLN2oe strain (AID 163);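 further: 0% = growth of vehicle-only control cultures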
Settings: S. cerevisiae CLN2oe strain, at 33.0 µM, hits give high values
This is part of a sample that, as a whole, favours compounds with a hit. Of some 79,000 tested, about 15% had one in any assay.
# unit: % | format: bare number

Reference set (2 entries):
input: Tell us which growth inhibition value is on record for C/C(=N\NC(N)=O)C(CN1CCOCC1)C(c1ccccc1)c1c(O)c2ccccc2oc1=O (stereo unspecified)
output: 4

input: // fetch growth inhibition given entry CCOC(=O)C1C2c3ccccc3C(c3ccccc32)C1C(=O)OCC (stereo unspecified)
output: 30

New cases:
input: For the molecule O=C(/C=C(\c1ccccc1)N1CC1)c1ccccc1 , report growth inhibition.
output: 0

input: Look up growth inhibition of O=Cc1ccc(C(F)(F)F)cc1.[C-]#[O+].[C-]#[O+].[C-]#[O+].[Cr] and report it.
output: 15

input: Retrieve growth inhibition measured for O=C1C=C(CN(CCCl)CCCl)C(=O)C=C1CN(CCCl)CCCl and print it.
output: -7

input: Read off the recorded growth inhibition for Cn1cnc(N)c1C(=N)[Se]
output: 11

====

Test: NCI Yeast Anticancer Drug Screen. Data for the sgs1 mgt1 strain (AID 161);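 further: 0% = growth of cultures given vehicle only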
Conditions: S. cerevisiae sgs1 mgt1 strain, at 50.0 µM (retest, dose inferred, filed as 5.0)
About 79,000 compounds went through this panel and 15% of them were active in at least one assay; those are over-represented in the sample as a whole. The source made the active and inactive calls. No stated cut-off is given here; in the data, active means growth inhibition above about 70%; inactive means the rest.
Thanks in advance; please answer with one of these: YES = active, NO = inactive

Study these solved cases before continuing.
input: Give the logged outcome of this assay for the following compound: O=[N+]([O-])c1ccc(C=Cc2ccccc2)cc1.[C-]#[O+].[C-]#[O+].[C-]#[O+].[Cr]
output: YES

input: Fill in: this test's call for CCOC(=O)/C(=C\c1ccc(C(=O)OC)cc1)[Se]c1ccccc1 is ___
output: NO

input: How did this test come out for O=c1oc2ccccc2c(O)c1C(c1ccc2c(c1)Cc1ccccc1-2)c1c(O)c2ccccc2oc1=O ?
output: YES

input: What classification did C[CH2][Sn]([Cl])([CH2]C)[O][Sn]([Cl])([CH2]C)[CH2]C end up with in this test?
output: YES

input: Could you check what this test reported for c1ccc(C[As+](c2ccccc2)(c2ccccc2)c2ccccc2)cc1 ?
output: YES

Others:
input: Status in this test for CC1(C)CC(=O)C([Se]C2=C(O)CC(C)(C)CC2=O)=C(O)C1 ?
output: YES

input: Which outcome was entered for the compound CC(=O)[O][Hg][c]1ccccc1N in this test?
output: YES

input: Hey, what did the test say about CC(=O)Oc1cccc2c1CC(C[Se]c1ccccc1)C(=O)O2 (stereo not given) ?
output: NO

input: Answer briefly: the call reported for CCC(C)N1CN(c2ccccc2)C2(CCN(CCCC3(c4ccc(F)cc4)OCCO3)CC2)C1=O (stereo not given) in this assay.
output: YES

input: How was C[C@]12CC[C@H]3[C@@H](CCC4=CC(=O)CC[C@@H]43)[C@@H]1CC[C@@H]2OC1(O)C(=O)c2ccccc2C1=O classified in this test?
output: NO

====

Assay: NCI Yeast Anticancer Drug Screen. Data for the rad52 strain (AID 147);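 further: 0% = growth of vehicle-treated control cultures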
Settings: S. cerevisiae rad52 mutant growth inhibition; at 11.0 µM; hits give high values
Compounds without any hit were thinned out: in the full panel of roughly 79,000, 15% have a hit.
Tick true if growth inhibition is 20% or greater. Tick false if growth inhibition is less than 20%.

See these solved cases before continuing.
input: Does growth inhibition meet or surpass 20% for C[N+](C)(C)CC1CCCC(C[N+](C)(C)C)C1=O (configuration not stated) ?
output: false

input: Would you say COC(=O)c1c(C)ccc2c(O)c3c(cc12)C(=O)c1c2c(cc(O)c1C3=O)C1(C)OC(C)(O2)C(O)C(N(C)C)C1O (configuration not stated) shows growth inhibition at minimum 20%?
output: true

input: Given O=C1c2ccc3ccccc3c2CCC1N1CCCCC1 (configuration not stated) , state whether its growth inhibition is at least 20%.
output: true

input: Is the recorded value of growth inhibition equal to or greater than 20% for this compound? CCCCCCCCCCCCCCCCP(=O)(O)OP(=O)(O)OCC1OC(n2ccc(N)nc2=O)C(O)C1O (configuration not stated)
output: false

input: Assess whether reported growth inhibition for O=c1oc2ccccc2c(O)c1C(c1ccc2ccccc2c1)c1c(O)c2ccccc2oc1=O sits at 20% or higher.
output: true

input: Decide: is the reported value of growth inhibition for C[CH2][Sn]([CH2]C)([O]S(C)(=O)=O)[O]S(C)(=O)=O equal to or greater than 20%?
output: false

input: Is it the case that O=c1oc2ccccc2c(O)c1C(c1ccc2c(c1)Cc1ccccc1-2)c1c(O)c2ccccc2oc1=O has growth inhibition reaching or exceeding 20%?
output: false

input: Please indicate if the recorded growth inhibition for CC1CC(Br)C(=O)O1 (configuration not stated) meets or exceeds 20%.
output: false

Now consider a different compound.
input: Quick check, growth inhibition >= 20%? CCOC(=O)C1([Se]c2ccccc2)CCCC1=O (configuration not stated)
output: true
